Every entry's value here was drawn from ChEMBL document CHEMBL3525964.

# Test system: Plasma
# runDescription: Drug level in human plasma treated with [14C}LY2452473 at 15 mg, po after 24 hrs administered as single dose by HPLC analysis
# Format: ADME, organism-based
# appliedConditions: in vivo
# Drug uptake annotations
Write it as a number; the unit % goes unstated.

# count of solved cases: 4
{"columns": ["chemicalSmiles", "valueUnit", "recordedNumber"],
 "data": [
  ["CC(C)OC(=O)N[C@H]1Cc2c(n(Cc3ccccn3)c3ccc(C#N)cc23)C1", "%", 28.81],
  ["C[C@@H](CO)OC(=O)N[C@H]1Cc2c(n(Cc3ccccn3)c3ccc(C#N)cc23)C1", "%", 0],
  ["CC(=O)N[C@H]1Cc2c(n(Cc3ccccn3)c3ccc(C#N)cc23)C1", "%", 28.48],
  ["C[C@H](CO)OC(=O)N[C@H]1Cc2c(n(Cc3ccccn3)c3ccc(C#N)cc23)C1", "%", 0]
]}

// moving on: another record for Drug uptake
Lookup result for CC(C)OC(=O)N[C@H]1Cc2c(n(Cc3ccccn3)c3ccc(C#N)cc23)[C@H]1O ; measured Drug uptake: 37.11
